FYI, the data here is from patent US10562878B2.

- subject.of.test: human dopamine transporter (Homo sapiens (Human))
- Sequence (Q01959 whole entry): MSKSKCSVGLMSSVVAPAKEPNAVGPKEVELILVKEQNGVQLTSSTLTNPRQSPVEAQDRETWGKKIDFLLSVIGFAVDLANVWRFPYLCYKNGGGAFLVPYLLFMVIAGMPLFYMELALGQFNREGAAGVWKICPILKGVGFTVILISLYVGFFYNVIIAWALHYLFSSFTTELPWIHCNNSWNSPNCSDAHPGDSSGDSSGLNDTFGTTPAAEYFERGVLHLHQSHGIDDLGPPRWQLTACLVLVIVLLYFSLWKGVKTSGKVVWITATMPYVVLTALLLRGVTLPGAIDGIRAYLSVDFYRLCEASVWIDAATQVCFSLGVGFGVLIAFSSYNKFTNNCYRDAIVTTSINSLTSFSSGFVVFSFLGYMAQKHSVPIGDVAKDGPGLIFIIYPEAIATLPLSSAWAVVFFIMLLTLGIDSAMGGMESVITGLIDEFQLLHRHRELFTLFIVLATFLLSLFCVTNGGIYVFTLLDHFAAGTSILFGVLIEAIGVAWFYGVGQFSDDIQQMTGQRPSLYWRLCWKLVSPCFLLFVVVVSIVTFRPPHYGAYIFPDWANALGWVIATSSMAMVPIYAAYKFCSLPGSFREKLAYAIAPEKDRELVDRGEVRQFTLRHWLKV
- protocol.summary: Dopamine functional uptake assay, recombinant human transporter in CHO-K1 or HEK293 cells
- protocol.conditions: read-out: hDAT IC50
experimental.readout: IC50 (nM)
Supply the numeric figure in nM, leaving out any unit text.

Solved entries (count: 2):
compound="CN(C)C[C@]1(c2ccc(Cl)c(F)c2)CCCC[C@H]1O (single isomer, unassigned) [158 E1]" result_number=945
compound=CCN(C)[C@H]1CC[C@@](CN)(c2ccc(Cl)c(Cl)c2)CC1 result_number=1390

Here is the next item to consider.
CN(C)C[C@]1(c2ccc(Cl)cc2)CCCC[C@H]1O (single isomer, unassigned) [154 E1] tested on human dopamine transporter (Homo sapiens (Human)) gave IC50: 795

---

We begin with a simple list: items and their reported pIC50.
- subject.of.test: human serotonin transporter (Homo sapiens (Human))
- Sequence (P31645 whole entry): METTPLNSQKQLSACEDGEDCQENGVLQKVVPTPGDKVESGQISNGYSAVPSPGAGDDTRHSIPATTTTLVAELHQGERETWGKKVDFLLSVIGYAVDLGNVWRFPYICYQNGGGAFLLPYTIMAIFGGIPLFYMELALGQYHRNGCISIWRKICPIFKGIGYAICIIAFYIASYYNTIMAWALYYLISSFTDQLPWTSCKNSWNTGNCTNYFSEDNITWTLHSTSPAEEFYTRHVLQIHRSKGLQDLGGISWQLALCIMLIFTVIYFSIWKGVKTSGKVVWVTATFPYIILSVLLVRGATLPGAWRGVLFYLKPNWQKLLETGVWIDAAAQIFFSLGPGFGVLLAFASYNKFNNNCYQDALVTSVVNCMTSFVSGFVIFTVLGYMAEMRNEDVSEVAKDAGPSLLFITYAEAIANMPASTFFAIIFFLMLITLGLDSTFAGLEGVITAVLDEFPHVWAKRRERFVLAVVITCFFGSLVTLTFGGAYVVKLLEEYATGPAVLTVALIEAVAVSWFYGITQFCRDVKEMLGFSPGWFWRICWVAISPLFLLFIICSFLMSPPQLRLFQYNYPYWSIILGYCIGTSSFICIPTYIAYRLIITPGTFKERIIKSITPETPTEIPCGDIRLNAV
- protocol.summary: Serotonin functional uptake assay, recombinant human transporter in HEK-293 cells
- Format: cell-based
- protocol.conditions: Human serotonin transporter uptake; read-out: hSERT IC50
The quantity pIC50 is defined as the negative base-10 logarithm of the molar concentration.

A selection of reference data follows.
compound="CN(C)C[C@@]1(c2ccc(Cl)c(Cl)c2)CCCC[C@H]1O (single isomer, unassigned) [152 E1]" subject_of_test="human serotonin transporter (Homo sapiens (Human))" experimental_readout=pIC50 result_number=6.39
compound="CNC[C@]1(c2ccc(OC)cc2)CCCC[C@H]1O (single isomer, unassigned) [140 E1]" subject_of_test="human serotonin transporter (Homo sapiens (Human))" experimental_readout=pIC50 result_number=5.57

Turning now to a further record.
With human serotonin transporter (Homo sapiens (Human)) as the test system, `CCN(C)[C@H]1CC[C@@](CN)(c2ccc(Cl)c(Cl)c2)CC1` showed pIC50 of 6.00
